- Test system: A549 (ATCC CCL 185): human lung carcinoma
- ASSAY COMMENT: In vitro antitumor activity, MTT assay, A549
- Format: cell-based
- CONDITIONS: Homo sapiens, A549, 48 h, Table 2
MEASURED ATTRIBUTE: log10 of IC50 (log10 of the value in µg/mL)
Please interpret these as log10 of IC50 where IC50 is in µg/mL.

MOLECULE	log10 of IC50
O=C(CCl)Nc1ccc(C(=O)N2CCc3cc(S(=O)(=O)n4cc(-c5ccccc5)[nH]c4=O)ccc32)cc1	-0.36
C=CCNCC(=O)N1c2ccc(S(=O)(=O)n3cc(-c4ccccc4)[nH]c3=O)cc2CC1C (centres unmarked)	-0.22
CNCC(=O)N1c2ccc(S(=O)(=O)n3cc(-c4ccccc4)[nH]c3=O)cc2CC1C (centres unmarked)	0.51
CC(C)NCC(=O)N1c2ccc(S(=O)(=O)n3cc(-c4ccccc4)[nH]c3=O)cc2CC1C (centres unmarked)	0.06

Entry CC1Cc2cc(S(=O)(=O)n3cc(-c4ccccc4)[nH]c3=O)ccc2N1C(=O)CNC(C)(C)C (centres unmarked) has what log10 of IC50?
0.16

Then what about the molecule `CC(C)CNCC(=O)N1CCc2cc(S(=O)(=O)n3cc(-c4ccccc4)[nH]c3=O)ccc21` ?
0.74

Then what about the molecule CC(C)CNCC(=O)N1c2ccc(S(=O)(=O)n3cc(-c4ccccc4)[nH]c3=O)cc2CC1C (centres unmarked) ?
0.51

Then what about the molecule `CC(C)NCC(=O)N1CCc2cc(S(=O)(=O)n3cc(-c4ccccc4)[nH]c3=O)ccc21` ?
0.54

----------
- Tested on: Colo205 (ATCC CCL 222): human colon adenocarcinoma
- ASSAY COMMENT: In vitro antitumor activity, MTT assay, Colo205
- Type: cell-based
- CONDITIONS: Homo sapiens, COLO 205, Table 2, 48 hrs, read-out: IC50 (Colo205)
MEASURED ATTRIBUTE: IC50 (µg/mL)
Give just the number in µg/mL; leave the unit off.

Solved cases (5 shown):
COMPOUND	ENDPOINT VALUE
CC(C)CNCC(=O)N1CCc2cc(S(=O)(=O)n3cc(-c4ccccc4)[nH]c3=O)ccc21 [Example 26]	9.09
CC1Cc2cc(S(=O)(=O)n3cc(-c4ccccc4)[nH]c3=O)ccc2N1C(=O)CNC(C)(C)C (stereo not shown) [Example 27]	5.68
O=C(c1ccc(Cl)cc1)N1CCc2cc(S(=O)(=O)n3cc(-c4ccccc4)[nH]c3=O)ccc21 [Example 18]	2.05
CC(C)NCC(=O)N1CCc2cc(S(=O)(=O)n3cc(-c4ccccc4)[nH]c3=O)ccc21 [Example 24]	3.35
C=CCNCC(=O)N1c2ccc(S(=O)(=O)n3cc(-c4ccccc4)[nH]c3=O)cc2CC1C (stereo not shown) [Example 28]	1.05

Entry CC(C)CNCC(=O)N1c2ccc(S(=O)(=O)n3cc(-c4ccccc4)[nH]c3=O)cc2CC1C (stereo not shown) [Example 25] has what IC50?
3.07

Then what about the compound CC(C)NCC(=O)N1c2ccc(S(=O)(=O)n3cc(-c4ccccc4)[nH]c3=O)cc2CC1C (stereo not shown) [Example 23] ?
3.45

----------
- Test system: Colo205 (ATCC CCL 222): human colon adenocarcinoma
- ASSAY COMMENT: In vitro antitumor activity, MTT assay, Colo205
- Assay type: cell-based
- CONDITIONS: Homo sapiens, COLO 205, Table 2, 48 hrs, read-out: IC50 (Colo205)
MEASURED ATTRIBUTE: IC50 (µg/mL)
Give just the number in µg/mL; leave the unit off.

Solved cases (3 shown):
MOLECULE	IC50 / µg/mL
CC1Cc2cc(S(=O)(=O)n3cc(-c4ccccc4)[nH]c3=O)ccc2N1C(=O)c1ccc(NC(=O)CCl)cc1 (stereo not shown)	0.91
O=C(CCl)Nc1ccc(C(=O)N2CCc3cc(S(=O)(=O)n4cc(-c5ccccc5)[nH]c4=O)ccc32)cc1	0.58
CC1Cc2cc(S(=O)(=O)n3cc(-c4ccccc4)[nH]c3=O)ccc2N1C(=O)CCl (stereo not shown)	0.834

# next molecule below
Entry CNCC(=O)N1c2ccc(S(=O)(=O)n3cc(-c4ccccc4)[nH]c3=O)cc2CC1C (stereo not shown) has what IC50?
3.8

----------
- System: A549 (ATCC CCL 185): human lung carcinoma
- ASSAY COMMENT: In vitro antitumor activity, MTT assay, A549
- Assay type: cell-based
- CONDITIONS: Homo sapiens, A549, 48 h, Table 2
MEASURED ATTRIBUTE: IC50 (µg/mL)
Give just the number in µg/mL; leave the unit off.

Solved cases (2 shown):
COMPOUND	MEASURED ATTRIBUTE	ENDPOINT VALUE
O=C(c1ccc(Cl)cc1)N1CCc2cc(S(=O)(=O)n3cc(-c4ccccc4)[nH]c3=O)ccc21 [Example 18]	IC50	0.607
CC1Cc2cc(S(=O)(=O)n3cc(-c4ccccc4)[nH]c3=O)ccc2N1C(=O)c1ccc(NC(=O)CCl)cc1 (stereo not drawn) [Example 20]	IC50	0.509

# next compound below
Entry CC1Cc2cc(S(=O)(=O)n3cc(-c4ccccc4)[nH]c3=O)ccc2N1C(=O)CCl (stereo not drawn) [Example 21] has what IC50?
1.13

----------
- Test system: Colo205 (ATCC CCL 222): human colon adenocarcinoma
- ASSAY COMMENT: In vitro antitumor activity, MTT assay, Colo205
- Type: cell-based
- CONDITIONS: Homo sapiens, COLO 205, Table 3, 48 hrs, read-out: IC50 (Col205)
- Method: In vitro antitumor activity against human tumor cell lines In vitro antitumor activity of the compounds according to the present invention was determined by MTT assay method against the following human tumor cell lines: Colo205 (ATCC CCL 222): human colon adenocarcinoma In this test, the known antineoplastic compounds, Doxorubicin and Sulofenur, were used as the comparative agents. […]
MEASURED ATTRIBUTE: IC50 (µg/mL)
Give just the number in µg/mL; leave the unit off.

Entry CNC(=S)N1CCc2cc(S(=O)(=O)N3CC(c4ccccc4)NC3=O)ccc21 (stereo not shown) has what IC50?
0.65

Then what about the molecule C=CCNC(=O)N1CCc2cc(S(=O)(=O)N3CC(c4ccccc4)NC3=O)ccc21 (stereo not shown) ?
7.1

Then what about the molecule O=C(Nc1ccc(Cl)cc1)NS(=O)(=O)c1ccc2c(c1)CCC2 [Sulofenur, reference compound] ?
48.9

Then what about the molecule O=C1NC(c2ccccc2)CN1S(=O)(=O)c1ccc2c(c1)CCN2C(=S)Nc1ccccc1 (stereo not shown) ?
2.14

Then what about the molecule CSc1ccc(NC(=O)N2CCc3cc(S(=O)(=O)N4CC(c5ccccc5)NC4=O)ccc32)cc1 (stereo not shown) ?
0.71

----------
The following compounds are shown together with reported log10 IC50 values.
- Tested on: SK-OV-3 (ATCC HTB 77): human ovarian adenocarcinoma
- ASSAY COMMENT: In vitro antitumor activity, MTT assay, SK-OV-3
- Type: cell-based
- CONDITIONS: Homo sapiens, SK-OV-3, Table 3, 48 hrs
Please interpret these as log10 of IC50 where IC50 is in mg/L.

Entry O=C1NC(c2ccccc2)CN1S(=O)(=O)c1ccc2c(c1)CCN2C(=S)Nc1ccccc1 (centres unmarked) has what log10 IC50?
1.02

----------
The following compounds are shown together with reported IC50 values.
- System: Colo205 (ATCC CCL 222): human colon adenocarcinoma
- ASSAY COMMENT: In vitro antitumor activity, MTT assay, Colo205
- Type: cell-based
- CONDITIONS: Homo sapiens, COLO 205, Table 3, 48 hrs, read-out: IC50 (Col205)
Give just the number in µg/mL; leave the unit off.

Solved cases (5 shown):
COMPOUND	ENDPOINT VALUE
CCNC(=S)N1CCc2cc(S(=O)(=O)N3CC(c4ccccc4)NC3=O)ccc21 (centres unmarked)	9.11
CCCNC(=O)N1CCc2cc(S(=O)(=O)N3CC(c4ccccc4)NC3=O)ccc21 (centres unmarked)	0.254
O=C(Nc1ccccc1)N1CCc2cc(S(=O)(=O)N3CC(c4ccccc4)NC3=O)ccc21 (centres unmarked)	1.26
O=C1NC(c2ccccc2)CN1S(=O)(=O)c1ccc2c(c1)CCN2C(=S)Nc1ccc(F)cc1 (centres unmarked)	8.74
O=C(NC1CCCCC1)N1CCc2cc(S(=O)(=O)N3CC(c4ccccc4)NC3=O)ccc21 (centres unmarked)	0.172

Entry CC(C)NC(=O)N1CCc2cc(S(=O)(=O)N3CC(c4ccccc4)NC3=O)ccc21 (centres unmarked) has what IC50?
0.258

Then what about the compound Nc1ccc(NC(=O)N2CCc3cc(S(=O)(=O)N4CC(c5ccccc5)NC4=O)ccc32)cc1 (centres unmarked) ?
3.24

Then what about the compound CCCCNC(=S)N1CCc2cc(S(=O)(=O)N3CC(c4ccccc4)NC3=O)ccc21 (centres unmarked) ?
2.4
